B1: 6NMW (parent)
chain: QGDIVVALYPYDGIHPDDLSFKKGEKMKVLEEHGEWWKAKSLLTKKEGFIPSNYVAKLN

variants of: B1; test: folding stability dG (cDNA display proteolysis); higher = more stable; conditions: PBS, room temperature
assay_readout: folding stability dG (kcal/mol)

| variant_label | assay_readout | unit_spec | recorded_measurement |
| --- | --- | --- | --- |
| M27H | folding stability dG | kcal/mol | -0.396 |
| T44W | folding stability dG | kcal/mol | 0.672 |
| L8F | folding stability dG | kcal/mol | 1.24 |
| N59Q | folding stability dG | kcal/mol | 3.56 |
| W36L | folding stability dG | kcal/mol | 2.85 |
| G24T | folding stability dG | kcal/mol | 0.282 |
| G34N | folding stability dG | kcal/mol | 2.22 |
| D17T | folding stability dG | kcal/mol | 3.68 |
| P16C | folding stability dG | kcal/mol | 3.56 |
| K23M | folding stability dG | kcal/mol | 2.89 |
| G48A | folding stability dG | kcal/mol | -0.512 |
| V55W | folding stability dG | kcal/mol | 0.199 |
| G2N | folding stability dG | kcal/mol | 3.5 |
| K22H | folding stability dG | kcal/mol | 2.66 |
| Y54Q | folding stability dG | kcal/mol | 1.44 |
| W37R | folding stability dG | kcal/mol | 2.28 |
| Y9G | folding stability dG | kcal/mol | 1.46 |
| P16D | folding stability dG | kcal/mol | 3.22 |
| S52Q | folding stability dG | kcal/mol | 3.31 |
| G24F | folding stability dG | kcal/mol | 2.13 |
| P16M | folding stability dG | kcal/mol | 2.81 |
| I50Y | folding stability dG | kcal/mol | -0.106 |
| N53P | folding stability dG | kcal/mol | 1.68 |
| W36M | folding stability dG | kcal/mol | 3.29 |
| Y11L | folding stability dG | kcal/mol | 0.851 |
| L43M | folding stability dG | kcal/mol | 3.25 |
| L43G | folding stability dG | kcal/mol | 2.02 |
| P51T | folding stability dG | kcal/mol | -0.429 |
| S20R | folding stability dG | kcal/mol | 2.23 |
| E25S | folding stability dG | kcal/mol | 0.621 |
| V55S | folding stability dG | kcal/mol | -0.255 |
| L43P | folding stability dG | kcal/mol | 0.475 |
| K57C | folding stability dG | kcal/mol | 3 |
| W37G | folding stability dG | kcal/mol | -0.016 |
| K23H | folding stability dG | kcal/mol | 1.85 |
| D17H | folding stability dG | kcal/mol | 3.78 |
| D17M | folding stability dG | kcal/mol | 3.47 |
| I4W | folding stability dG | kcal/mol | 2.71 |
| K38H | folding stability dG | kcal/mol | 2.92 |
| D3T | folding stability dG | kcal/mol | 4.52 |
| T44Q | folding stability dG | kcal/mol | 1.26 |
| K46G | folding stability dG | kcal/mol | 2.14 |
| W37E | folding stability dG | kcal/mol | -0.118 |
| P16G | folding stability dG | kcal/mol | 2.75 |
| M27C | folding stability dG | kcal/mol | 0.54 |
| E32Y | folding stability dG | kcal/mol | 4.42 |
| K57F | folding stability dG | kcal/mol | 3.96 |
| G2C | folding stability dG | kcal/mol | 4.54 |
| D17C | folding stability dG | kcal/mol | 4.33 |
| W37M | folding stability dG | kcal/mol | 4.7 |
| N53S | folding stability dG | kcal/mol | 4.5 |
| L8G | folding stability dG | kcal/mol | 0.062 |
| L58N | folding stability dG | kcal/mol | 1.86 |
| L42E | folding stability dG | kcal/mol | 1.82 |
| W36F | folding stability dG | kcal/mol | 3.29 |
| K45I | folding stability dG | kcal/mol | 1.8 |
| V29F | folding stability dG | kcal/mol | 1.05 |
| K22I | folding stability dG | kcal/mol | 3.84 |
| K22C | folding stability dG | kcal/mol | 3.28 |
| M27I | folding stability dG | kcal/mol | 1.74 |
| V55F | folding stability dG | kcal/mol | 4.1 |
| V6W | folding stability dG | kcal/mol | 2.05 |
| W36Q | folding stability dG | kcal/mol | 2.51 |
| K28N | folding stability dG | kcal/mol | 2.02 |
| V6G | folding stability dG | kcal/mol | 0.392 |
| D17L | folding stability dG | kcal/mol | 3.6 |
| L42T | folding stability dG | kcal/mol | 1.47 |
| Y11C | folding stability dG | kcal/mol | 1.5 |
| A7Y | folding stability dG | kcal/mol | -0.494 |
| Y54K | folding stability dG | kcal/mol | 2.44 |
| D18F | folding stability dG | kcal/mol | 4.07 |
| I14A | folding stability dG | kcal/mol | 3.22 |
| Y9L | folding stability dG | kcal/mol | 3.06 |
| I14Y | folding stability dG | kcal/mol | 3.08 |
| L43D | folding stability dG | kcal/mol | 3.14 |
| E25Y | folding stability dG | kcal/mol | 0.16 |
| V5A | folding stability dG | kcal/mol | 2.41 |
| P51V | folding stability dG | kcal/mol | -0.225 |
| F49M | folding stability dG | kcal/mol | 4.22 |
| S52T | folding stability dG | kcal/mol | 2.23 |
| E25F | folding stability dG | kcal/mol | -0.064 |
| H15F | folding stability dG | kcal/mol | 3.5 |
| E31C | folding stability dG | kcal/mol | 4.09 |
| D12A | folding stability dG | kcal/mol | 3.85 |
| S20T | folding stability dG | kcal/mol | 3.13 |
| L42N | folding stability dG | kcal/mol | 0.819 |
| A56D | folding stability dG | kcal/mol | 2.03 |
| L58T | folding stability dG | kcal/mol | 2.86 |
| N59A | folding stability dG | kcal/mol | 3.8 |
| P16Y | folding stability dG | kcal/mol | 2.59 |
| F49H | folding stability dG | kcal/mol | 1.88 |
